Could you please report measured melting point for the items listed next?

Returns the measured melting point for the input compound. Input: C=CCN(CC)C(=O)n1cnc(S(=O)CC)n1 (configuration not stated)
59 to 61 °C

// same read-out, input: O=C(Nc1ccc2ccc(Cl)nc2n1)c1cncs1
292 °C

Then this compound: O=C(O)C(=NOCc1ccc(Cl)cc1Cl)c1csc(NC(=O)C(F)(F)F)n1
170 to 176 °C

Param item: COc1cc2c(cc1Br)C(=CNc1ccc(CN3CCCCC3)cc1)C(=O)NC2=O
264 to 267 °C

Would you kindly repeat that for CCCCc1c(C(=O)OCC)cc(O)c2ccc(OC)cc12 ?
112 to 115 °C

What do you have for CCc1nc(/C=C/c2cn(-c3ccccc3)nc2OCc2ccc(OCc3nc(-c4cccc(C#N)c4)oc3C)c(OC)c2)cs1 ?
138 to 140 °C

Follow-up item: CCOCc1nc2c(N)nc(C)c(C)c2n1CCOCC#Cc1ccccc1
129 to 130 °C

Query CCOC(=O)n1cc(C#N)c(-c2ccc(F)c(Cl)c2F)c1 next
132 °C

Also, Nc1ccc2c(c1)NC(=O)C2 please.
194 °C

For CC(C)n1cc(-c2nc(C(N)=O)c(N)nc2-c2ccccc2)ccc1=O then?
240 to 245 °C

Queued: CC(N=Cc1ccc(O)cc1)c1ccc([N+](=O)[O-])cc1 (single isomer, unassigned; (-))
118 to 120 °C

And what about the compound N#CCCNC(=O)c1cccc(-c2ccc3c(c2)C(Oc2ccc(Cl)cc2Cl)CC3)c1 (configuration not stated) ?
139 to 145 °C

Please answer likewise for Cc1cccc2c(=O)[nH]c(N3CCN(CCCCN4CCN(C)CC4)CC3)cc12
202 to 203 °C

Continue with COc1cc2cc(-c3ccc4c(c3)OCO4)nc(C)c2cc1OC
174 °C

Now try COC(=O)c1cc(Oc2ccc(Cl)c(C)c2)ccc1[N+](=O)[O-] .
85 to 87 °C

Okay, and NS(=O)(=O)c1ccc(C2=C(c3ccc(F)cc3)CC3(CC3)C2)cc1 ?
131 to 133 °C

How about Nc1ncc(-c2ccccc2COc2ccccc2)s1 ?
154 °C

For COc1cccc(C23CCN(C)CC2Cc2c([nH]c(C(=O)N4CCCC4)c2C)C3)c1 (configuration not stated) then?
171 to 173 °C

Query CCOC(=O)NN(CCO)c1ccc(-c2ccc(Cl)cc2)nn1 next
152 to 154 °C

What do you have for Cc1cc2c(cc1Sc1ccc(C(=O)O)c(O)c1)C(C)(C)CCC2(C)C ?
74 to 75 °C

Request: CCOC(=O)C1=C(Cl)N=C(C)N(C(=O)OC)C1c1cccc([N+](=O)[O-])c1 (configuration not stated)
113 to 114 °C

Entry to check: COc1ccc(N2CCN(Cc3n[nH]c4c(I)cccc34)CC2)cc1
185 to 186 °C

// same read-out, input: O=c1ccn([C@H]2C=C[C@@H](O)CC2)c(=O)[nH]1 (racemic)
161 to 162 °C

Now the compound CCOC(=O)C(NC(C)=O)C(O)c1ccc(C=Cc2csc3ccccc23)s1 (configuration not stated)
157 to 159 °C

And then CSc1ncccc1OCCO , what is it?
80 °C

Do the same for Cn1ccnc1Sc1ccc(Nc2c(C#N)cnc3cc(/C=C/CCO)ccc23)cc1Cl please
205 to 210 °C

Continue with CCOC(=O)CNc1ccc(OCc2ccccc2)cc1
70 °C
